- assayedTarget: L-19437_(D-Pep-1)
- testProtocol: ITC; MicroCal PEAQ-ITC, 19 injections; peptide titrated over the binder (L-19437 15 uM, D-Pep-1 150 uM); PBS pH 7.4; One Set of Sites mode
pKd: −log10 of the molar value. Square brackets hold non-standard residues; d marks the D form. Ends that are not written are not given here. * marks the point of attachment. Biotin = O=C1N[C@H]2[C@H](CS[C@H]2CCCCC(=O)*)N1
parameter: pKd

{"binder": "Biotin-[dD][dE][dH][dE][dL][dL][dE][dT][dA][dA][dR][dW][dF][dY][dE][dI][dA][dK][dR][dA] [D-Pep-1]", "parameter": "pKd", "dataValue": 7.31}
